From: patent US11098040B2

assay overview: Whole blood stability, human
Format: in vitro ADME
measurement context: 30 min
attribute measured: Whole Blood Stability % Remaining at 37° C. Human (%)

> print(dat)
                                    compound  result.number
 1  CC[C@H]1Cc2c([nH]c3ccccc23)[C@@H](c2ccc(C(=O)OC)cc2)N1C(=O)CCl           94.5
 2  CN(C)C(=O)c1ccc([C@@H]2c3sc4ccccc4c3C[C@H](C(=O)N(C)C)N2C(=O)CCl)cc1 [Compound 55a]           42.6
 3  COC(=O)[C@H]1Cc2c([nH]c3ccccc23)[C@H](c2ccc(C(=O)NCCNC(=O)OC(C)(C)C)cc2)N1C(=O)CCl           54.3
 4  CN(C)C(=O)[C@H]1Cc2c([nH]c3ccccc23)[C@H](c2ccc(C(=O)OC(C)(C)C)cc2)N1C(=O)CCl           49.7
 5  COC(=O)c1ccc([C@H]2c3[nH]c4c(Br)cccc4c3C[C@H](C(=O)OC)N2C(=O)CCl)cc1           69.6
 6  CC(C)(C)OC(=O)[C@H]1Cc2c([nH]c3ccccc23)[C@H](c2ccc([N+](=O)[O-])cc2)N1C(=O)CCl           67.1
 7  CN(C)C(=O)c1ccc([C@H]2c3sc4ccccc4c3C[C@H](C(=O)N(C)C)N2C(=O)CCl)cc1           50.6
 8  COC(=O)c1ccc([C@H]2c3[nH]c4ccccc4c3C[C@H](C(=O)OC(C)(C)C)N2C(=O)CCl)cc1           58.5
 9  COC(=O)c1ccc([C@H]2c3[nH]c4ccc(OC)cc4c3C[C@H](C)N2C(=O)CCl)cc1           85.1
10  COC(=O)c1ccc([C@@H]2c3[nH]c4ccccc4c3C[C@H](C)N2C(=O)CCl)cc1 [Example 77a]           47.5
11  COC(=O)c1ccc([C@H]2c3[nH]c4ccccc4c3C[C@H](C(=O)O)N2C(=O)CCl)cc1           43.0
12  CC(C)(C)OC(=O)c1ccc([C@H]2c3[nH]c4ccccc4c3C[C@H](CO)N2C(=O)CCl)cc1 [Example 63a]           35.0
13  CN(C)C(=O)[C@H]1Cc2c([nH]c3ccccc23)[C@@H](c2ccc([Si](C)(C)C)cc2)N1C(=O)CCl [Compound 67a]           35.5
